Please provide measured EC50 for the entries that follow.
biological target: human FGFR1c + KLB receptor complex on HEK293 iLite FGF21 reporter cells (human, UniProt P11362 22-822; Q86Z14 1-1044); assay: cell-based or functional assay
Sequence (P11362 22-822, chain 1 of 2): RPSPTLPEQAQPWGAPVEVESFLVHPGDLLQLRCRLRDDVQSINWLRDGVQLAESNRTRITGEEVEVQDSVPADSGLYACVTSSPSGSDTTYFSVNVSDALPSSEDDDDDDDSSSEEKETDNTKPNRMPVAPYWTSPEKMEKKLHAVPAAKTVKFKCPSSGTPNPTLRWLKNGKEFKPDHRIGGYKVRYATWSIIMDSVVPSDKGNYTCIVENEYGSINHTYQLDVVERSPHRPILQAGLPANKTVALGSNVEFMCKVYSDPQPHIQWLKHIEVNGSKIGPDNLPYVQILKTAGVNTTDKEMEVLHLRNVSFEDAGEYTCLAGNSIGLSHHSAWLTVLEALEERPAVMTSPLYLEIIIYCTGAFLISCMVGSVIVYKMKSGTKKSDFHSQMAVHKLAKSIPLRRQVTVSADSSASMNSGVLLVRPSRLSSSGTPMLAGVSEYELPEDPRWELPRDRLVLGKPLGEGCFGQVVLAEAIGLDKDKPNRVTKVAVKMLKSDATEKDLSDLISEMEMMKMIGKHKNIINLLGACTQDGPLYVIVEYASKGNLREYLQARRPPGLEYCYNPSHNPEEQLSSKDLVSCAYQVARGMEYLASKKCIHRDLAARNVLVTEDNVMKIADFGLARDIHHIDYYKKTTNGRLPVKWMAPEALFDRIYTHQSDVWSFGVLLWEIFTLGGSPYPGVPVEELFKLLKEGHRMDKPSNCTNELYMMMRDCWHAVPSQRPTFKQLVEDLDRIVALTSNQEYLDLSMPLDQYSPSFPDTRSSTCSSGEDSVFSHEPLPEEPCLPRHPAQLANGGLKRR
Sequence (Q86Z14 whole entry, chain 2 of 2): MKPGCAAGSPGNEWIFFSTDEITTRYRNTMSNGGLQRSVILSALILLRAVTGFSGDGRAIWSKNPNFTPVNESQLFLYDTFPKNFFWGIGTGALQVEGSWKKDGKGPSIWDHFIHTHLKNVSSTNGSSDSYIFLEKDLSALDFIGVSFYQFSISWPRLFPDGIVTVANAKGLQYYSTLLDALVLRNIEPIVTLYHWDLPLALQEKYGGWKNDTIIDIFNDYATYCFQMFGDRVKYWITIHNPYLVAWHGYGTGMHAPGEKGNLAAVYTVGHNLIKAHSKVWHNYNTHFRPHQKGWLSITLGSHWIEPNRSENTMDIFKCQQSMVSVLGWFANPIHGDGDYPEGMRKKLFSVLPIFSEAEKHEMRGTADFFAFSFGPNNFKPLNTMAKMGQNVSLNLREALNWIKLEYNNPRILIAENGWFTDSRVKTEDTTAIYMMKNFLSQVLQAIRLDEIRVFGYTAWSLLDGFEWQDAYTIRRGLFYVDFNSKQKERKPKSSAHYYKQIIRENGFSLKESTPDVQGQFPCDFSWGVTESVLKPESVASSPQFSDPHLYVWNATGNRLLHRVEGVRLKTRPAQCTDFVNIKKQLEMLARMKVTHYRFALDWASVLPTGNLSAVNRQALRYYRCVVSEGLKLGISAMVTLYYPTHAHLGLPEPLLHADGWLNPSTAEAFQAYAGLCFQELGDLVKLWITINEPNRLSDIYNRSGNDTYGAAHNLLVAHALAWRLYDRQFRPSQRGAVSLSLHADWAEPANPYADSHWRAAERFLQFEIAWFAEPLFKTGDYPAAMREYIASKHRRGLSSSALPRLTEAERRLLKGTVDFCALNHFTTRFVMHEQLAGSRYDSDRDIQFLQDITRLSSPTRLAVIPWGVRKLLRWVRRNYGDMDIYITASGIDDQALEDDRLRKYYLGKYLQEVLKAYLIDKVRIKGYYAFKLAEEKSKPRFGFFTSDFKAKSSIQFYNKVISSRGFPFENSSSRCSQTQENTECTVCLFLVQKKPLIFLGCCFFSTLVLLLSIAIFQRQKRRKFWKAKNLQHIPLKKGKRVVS
One number for each entry, in nM.

>>> obs_value("Ab0364 (antibody, IgG4, V domains shown, IgG4 PE) VH: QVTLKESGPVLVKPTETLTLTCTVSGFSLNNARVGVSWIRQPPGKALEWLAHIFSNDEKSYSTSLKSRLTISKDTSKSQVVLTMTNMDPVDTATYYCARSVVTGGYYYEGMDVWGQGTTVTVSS VL: SYVLTQPPSVSVAPGQTARITCGGANIGSESVHWYQQKPGQAPVLVVYEESDRPSGIPERFSGSNSGNTATLTISRVEAGDEADYYCQVWEGSSDHVVFGGGTKLTVLG")
0.11

Here's the next entry for you.
Input line: Please look up its EC50: Ab0346 (antibody, IgG4, V domains shown) VH: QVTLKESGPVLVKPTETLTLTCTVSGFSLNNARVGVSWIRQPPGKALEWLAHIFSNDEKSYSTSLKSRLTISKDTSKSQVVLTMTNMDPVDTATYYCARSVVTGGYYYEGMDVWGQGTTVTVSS VL: SYVLTQPPSVSVAPGQTARITCGGSNIGSESVHWYQQKPGQAPVLVVYAHSDRPSGIPERFSGSNSGNTATLTISRVEAGDEADYYCQVWAGSSDHVVFGGGTKLTVLG
Output line: 2.25
